Biological target: Androgen receptor (Homo sapiens)
Assay: qHTS assay to identify small molecule agonists of the androgen receptor (AR) signaling pathway using the MDA cell line (AID 743040; also: nearly all actives have a fitted effect of over 20% in size)
Conditions: MDA-kb2 AR-luc cells, MMTV luciferase, 16 h; series mostly up to 70.3 µM
The source made the active and inactive calls. Calls follow the shape of the dose curve; as a rule, active = well fitted activation curve with a large enough effect in the repeat runs; inconclusive = weak or mixed curves; inactive = flat fitted curve, though single readings scatter.
Answer with one of the outcomes given here: y (active), n (inactive)

Sample answers from the record:
compound=CCCOC(=O)CC classification=n
compound=COC(=O)Nc1ccc(Cl)c(Cl)c1 classification=n
compound=CCCCCCCCCC[N+](C)(C)[O-] classification=n
compound="COC(=O)C1=C(C)NC(C)=C(C(=O)OC(C)C)C1c1cccc2nonc12 (stereo not drawn)" classification=n
compound=CC(=O)O[C@@]12CO[C@@H]1C[C@H](O)[C@@]1(C)C(=O)[C@H](O)C3=C(C)[C@@H](OC(=O)[C@H](O)[C@@H](NC(=O)OC(C)(C)C)c4ccccc4)C[C@@](O)([C@@H](OC(=O)c4ccccc4)[C@H]21)C3(C)C classification=n

Q. Please state the recorded outcome for this compound: CC(C)C1CCC(O)CC1 (stereo not drawn)
A. n
